- Tested on: TAB113
- MEASUREMENT_PROTOCOL: qHTS profiling for inhibitors of Plasmodium falciparum proliferation (AID 504749); note: nearly all actives have a fitted effect of over 60% in size
- SETTINGS: P. falciparum in erythrocytes, SYBR Green DNA, 72 h; series mostly up to 28.7 µM
Records with an inconclusive call do not appear. The source made the active and inactive calls. Calls come from the whole dose curve; as a rule, active = well fitted inhibition curve with a large enough effect; inconclusive = small, poorly fitted or top-dose-only effect; inactive = flat fitted curve, though single readings scatter.
Possible outcomes: Yes (active), No (inactive)

INSERT INTO measurements (record_smiles, discrete_label) VALUES
  ('CCCCCCCCCCCCCCCC[n+]1ccccc1', 'Yes'),
  ('CCCCCCCCCCCCCCCC[N+](C)(C)Cc1ccccc1', 'Yes'),
  ('CCCCCCCCCCCCCC[N+](C)(C)C', 'Yes'),
  ('O=S(=O)(O)c1ccc2nc(-c3ccccc3)[nH]c2c1', 'No'),
  ('Nc1c2ccccc2nc2ccccc12', 'Yes');
